Measurement notes: Cytotoxicity against human HIEC-6 cells assessed as cell viability measured after 24 hrs by MTT assay
Below, each of the compounds is paired with its reported IC50 at 24 h value.
Quantity name: IC50 at 24 h (µg/mL)

Chemical smiles: Cc1ccc(C(C)C)c(/N=N/c2ccc([N+](=O)[O-])cc2)c1O
Measurement unit: µg/mL
Recorded measurement: 15.1
--
Chemical smiles: Cc1cc(O)c(C(C)C)cc1/N=N/c1ccc([N+](=O)[O-])cc1
Measurement unit: µg/mL
Recorded measurement: 13.6

* * *

Test system: Helicobacter pylori
Measurement notes: Anti-bacterial activity against Helicobacter pylori measured after 72 hrs incubation by modified broth dilution method
Type: functional
Quantity name: MIC50

Chemical smiles: Cc1cc(OC(=O)N(C)C)c(C(C)C)cc1/N=N/c1ccc([N+](=O)[O-])cc1
Quantity name: MIC50
Recorded measurement: > 128 µg/mL

Chemical smiles: C=CCc1cc(/N=N/c2ccc3c(c2)OCO3)c(O)c(OC)c1
Quantity name: MIC50
Recorded measurement: > 128 µg/mL

Chemical smiles: C=CCc1cccc(OC)c1O
Quantity name: MIC50
Recorded measurement: > 128 µg/mL

* * *

System: Helicobacter pylori
Measurement notes: Bactericidal against Helicobacter pylori measured after 72 hrs of incubation under microaerophilic conditions by modified broth dilution method
Type: functional

Chemical smiles: Cc1c(/N=N/c2ccccc2Cl)cc(C(C)C)c(O)c1/N=N/c1ccccc1Cl
MBC90: >128 µg/mL
//
Chemical smiles: COc1ccc(/N=N/c2cc(C(C)C)c(O)c(/N=N/c3ccc(OC)cc3)c2C)cc1
MBC90: >128 µg/mL
//
Chemical smiles: Cc1cc(O)c(C(C)C)cc1/N=N/c1ccc([N+](=O)[O-])cc1
MBC90: 4 µg/mL
//
Chemical smiles: Cc1cc(O)c(C(C)C)cc1C1(c2cc(C(C)C)c(O)cc2C)OS(=O)(=O)c2ccccc21
MBC90: >128 µg/mL
//
Chemical smiles: Cc1ccc(C(C)C)c(/N=N/c2ccc([N+](=O)[O-])cc2)c1O
MBC90: 4 µg/mL
//
Chemical smiles: Cc1cc(/N=N/c2ccccc2Cl)c(C(C)C)cc1O
MBC90: 4 µg/mL
//
Chemical smiles: Cc1cc(/N=N/c2ccc(Br)cc2)c(C(C)C)c(/N=N/c2ccc(Br)cc2)c1O
MBC90: >128 µg/mL
//
Chemical smiles: Cc1cc(OC(=S)N(C)C)c(C(C)C)cc1/N=N/c1ccc([N+](=O)[O-])cc1
MBC90: >128 µg/mL
//
Chemical smiles: COc1ccc(/N=N/c2cc(C=O)cc(OC)c2O)cc1
MBC90: >128 µg/mL
//
Chemical smiles: Cc1ncc([N+](=O)[O-])n1CCO
MBC90: 256 µg/mL
//
Chemical smiles: Cc1cc(/N=N/c2ccccc2Cl)c(C(C)C)c(/N=N/c2ccccc2Cl)c1O
MBC90: >128 µg/mL
//
Chemical smiles: COc1ccc(/N=N/c2cc(C(C)C)c(OC(=S)N(C)C)cc2C)cc1
MBC90: >128 µg/mL

* * *

Listing of entries alongside the reported MBC90.
Tested on: Helicobacter pylori
Measurement notes: Bactericidal against Helicobacter pylori measured after 72 hrs of incubation under microaerophilic conditions by modified broth dilution method
Assay type: functional

Chemical smiles: CC(=O)Oc1cc(C)c(/N=N/c2ccc([N+](=O)[O-])cc2)cc1C(C)C
MBC90: >128 mg/L
//
Chemical smiles: C=CCc1cc(/N=N/c2ccc3c(c2)OCO3)c(O)c(OC)c1
MBC90: >128 mg/L
//
Chemical smiles: C=CCc1cc(/N=N/c2cccc3ccccc23)c(O)c(OC)c1
MBC90: >128 mg/L
//
Chemical smiles: C=CCc1cc(/N=N/c2cccc([N+](=O)[O-])c2)c(O)c(OC)c1
MBC90: >128 mg/L
//
Chemical smiles: C=CCc1cc(/N=N/c2ccc(Cl)cc2Cl)c(O)c(OC)c1
MBC90: >128 mg/L

Taken from ChEMBL document CHEMBL6109036.
